Tested on: KM12 colon
Assay: NCI-60 one-dose screen, 48 h (100 = growth as untreated, 0 = no growth, -100 = all killed)
Conditions: 10 µM unless noted
The panel holds about 83,000 compounds, 20% with a hit somewhere; the sample as a whole holds those more often.
Measured endpoint: growth (%)
State just the number; it will be interpreted in %.

Query string: What growth value was documented for this compound, Nc1n[nH]c2ccc([C@@H]3Nc4ccc5cn[nH]c5c4[C@H]4C5CCC(C5)[C@@H]34)cc12 (some centres undefined) ?
Result string: 17.6

Query string: Look up growth: O=C(Nc1cccc2[nH]c(C(F)(F)F)nc12)c1ccc(-n2cnnn2)cc1
Result string: 72.7

Query string: Form field: reported growth of C=CC(=O)Nc1cccc(-c2nc(SC)nc(NCCc3ccc(OC)c(OC)c3)c2C#N)c1
Result string: 64.6

Query string: I'd like to know its growth. The compound in question is C=C(C)[C@@H]1CC[C@]2(C(=O)OC)CC[C@]3(C)[C@H](CC[C@@H]4[C@@]5(C)C/C(=C/c6ccc(OC)cc6)C(=O)C(C)(C)[C@@H]5CC[C@]43C)[C@@H]12
Result string: 94.3

Query string: // query growth value for entry Cc1ccc(/C=C2\SC(=S)N(CC(=O)NCCCN3CCOCC3)C2=O)cc1
Result string: 105

Query string: So what's the measured growth for this one? Cc1nc(/N=C(\N)NC(=O)Nc2cccc([N+](=O)[O-])c2)sc1C
Result string: 72.1

Query string: Field request: growth | item: O=C1/C(=C/c2ccc(Cl)cc2)SC(=S)N1CCc1ccc(O)cc1
Result string: 93.6

Query string: Record request: growth value, item Cc1[nH]c(-c2ccc3cc[nH]c3c2)c2c1C(=O)CCCC2
Result string: 47.8

Query string: Which growth is reported for this compound? CC1=CC(=NN=c2cc(C)n([O-])c(C)c2)C=C(C)[N+]1=O
Result string: 95.3

---

System: NCI-H460 lung
Test: NCI-60 one-dose screen, 48 h
Conditions: 10 µM unless noted
Compounds without any hit were thinned out: in the full panel of roughly 83,000, 20% have a hit. Activity calls are given as the source filed them. The calls were made as follows: active = growth percent below 10; inactive = the rest.
Output constraint: value belongs to active, inactive

Query string: Recorded test outcome, item Cc1ccc(NC(=O)/C=C/c2ccccc2)c(C(N)=O)c1
Result string: inactive

Query string: Dear all, I need the recorded test outcome for O=C(COc1cccc(/C=C2\COc3ccccc3C2=O)c1)Nc1nccs1 , thank you.
Result string: inactive

Query string: What classification did COc1ccc(C(=O)c2sc3nc4c(c(-c5cccnc5)c3c2N)CCCC4)cc1OC end up with in this test?
Result string: inactive

Query string: Any idea what this test logged for Cc1cc(C)nc(SC2=C(Nc3cccc(Cl)c3C)C(=O)N(Cc3ccccc3)C2=O)n1 ?
Result string: inactive

Query string: Query: recorded result category for Nc1n[nH]c2ccc([C@@H]3Nc4cc5c(cc4[C@H]4C6CCC(C6)[C@@H]34)C(=O)NC5)cc12 (stereo not given in full) in this test
Result string: active

Query string: Entry O=c1ccccc(-c2ccc(Br)cc2)c1O : call = ?
Result string: active

Query string: Please state the recorded outcome for this molecule: Clc1ccc2c(NCCNc3nc(N4CCOCC4)nc4ccccc34)ccnc2c1
Result string: active

Query string: Just curious, what result did CC(C)(C)c1cc(/C=N\NC(=O)/C=C/C=C/c2ccc3c(c2)OCO3)c(O)c(C(C)(C)C)c1 get here?
Result string: inactive

Query string: Record lookup: outcome of this test for O=C1c2cc3c(cc2-c2c1c1ccc(F)cc1c(=O)n2C[C@H](O)[C@H](O)[C@H](O)CO)OCO3 ?
Result string: active

Query string: Status in this test for CN1CCN(CCCOc2cccc3nc(Nc4cc(Cl)cc(Cl)c4)ccc23)CC1 ?
Result string: active

Query string: Recorded test outcome, item COc1cccc(-c2nc3sccn3c2-c2ccnc(NCCCNS(=O)(=O)c3cccc(Cl)c3)c2)c1
Result string: inactive

Query string: Please share the test call associated with Cc1cn2c(/C=C3/C(=O)Nc4c3ccc3ccccc43)c(C(F)(F)F)nc2s1 .
Result string: active

Query string: Outcome? Cn1cc(-c2nonc2-c2c[nH]c3ccc(F)cc23)c2cccnc21
Result string: inactive

Query string: State the result this test recorded for NC(CSC(c1ccccc1)(c1ccccc1)c1ccc(Cl)cc1)C(=O)O (stereo not given) .
Result string: active

Query string: Recorded call for CCOc1cc2ncc(C#N)c(Nc3ccc(F)c(Cl)c3)c2cc1NC(=O)CC1CCSS1 (stereo not given) ?
Result string: active

Query string: Please share the test call associated with COc1ccc(C(=O)COc2cccc(/C=C3\CSc4ccccc4C3=O)c2)cc1 .
Result string: inactive

Query string: For Cn1c(NCCc2ccc(O)c(O)c2)nc2c1c(=O)n(Cc1ccc(Br)cc1)c(=O)n2C , which call appears in the assay record?
Result string: inactive

Query string: What was the test verdict on Cc1ccccc1COc1ccc(-c2onc(C)c2-c2ccc(Cl)cc2)cc1 ?
Result string: inactive

Query string: Test call, this molecule: COc1cc(C(=O)Oc2ccccc2OC(=O)c2cc(OC)c(OC)c(OC)c2)cc(OC)c1OC
Result string: inactive

Query string: For O=C(COc1ccc(/C=C2\CSc3ccccc3C2=O)cc1)Nc1nccs1 , which call appears in the assay record?
Result string: inactive

Query string: Each molecule tested received a call. Report the one for N#Cc1nnn(-c2ccc(S(N)(=O)=O)cc2)c1NC(=O)CCl .
Result string: inactive

Query string: Call for entry CN1CCN(CCCOc2cccc3nc(Nc4ccc(Cl)c(F)c4)ccc23)CC1 :
Result string: inactive

Query string: Tell me the recorded outcome of this test for CCOC(=O)c1csc(NC(=O)COc2cccc(/C=C3\CSc4ccccc4C3=O)c2)n1 .
Result string: inactive

Query string: Record request — test call for COc1cc(C)c(C2C(C#N)=C(N)Oc3n[nH]c(-c4cccs4)c32)cc1C(C)C (stereo not given)
Result string: inactive

Query string: Identify the outcome logged in this assay for the molecule shown: FC(F)(F)Oc1ccc2nc3nc4ccc[nH]c4cc3c2c1
Result string: inactive

Query string: GET /call?item= O=c1cc(/C(=C2/C=CC=N2)c2ccc[nH]2)c2cc(Cl)ccc2o1 returns the recorded outcome of this test.
Result string: inactive

Query string: What outcome does the record of this test show for O=C1CC[C@H](c2ccc(O)c3c2C(=O)[C@@H]2O[C@@H]2C3=O)c2cccc(O)c21 ?
Result string: inactive

Query string: Answer briefly: the call reported for OC(COc1cccc2ccccc12)CN1CCN(c2ccccc2Cl)CC1 (stereo not given) in this assay.
Result string: inactive

Query string: Recorded test outcome, item O=C(N/N=C/c1ccccc1O)c1ccccc1Nc1ccnc(C(F)(F)F)c1
Result string: active

Query string: Dear colleague, could you share the recorded outcome for COc1cc(-c2nc3cc(Cl)c(Cl)cc3[nH]2)ccc1OCC(=O)N=Nc1c(O)[nH]c2ccccc12 when you have a moment?
Result string: active

Query string: Please share the test call associated with O=c1oc2c(C(F)(F)F)cccc2cc1-c1csc(Nc2ccc(OCCF)cc2)n1 .
Result string: active

Query string: // outcome(item) with item = N#Cc1c(-c2ccc(Cl)cc2)nc(N/N=C/c2cccc(Br)c2)nc1N1CCOCC1
Result string: inactive

Query string: GET /call?item= CC(=O)Nc1ccc(-n2c(O)c(/C=N/NC(=O)Cc3ccccc3Nc3c(Cl)cccc3Cl)sc2=S)cc1 returns the recorded outcome of this test.
Result string: inactive

Query string: Lab log entry: O=C1OCC2=C1C(c1ccncc1)c1cc3c(cc1N2CCO)OCO3 (stereo not given) — outcome as called in the assay?
Result string: inactive

Query string: Which outcome was assigned to NC(=NC1C2CC3CC(C2)CC1C3)Nc1ccc(I)cc1 (stereo not given) in this test?
Result string: inactive

Query string: Which outcome was assigned to O=C1c2cccc3cccc(c23)C(=O)N1CCCCCN1CCN(CCCCCOc2ccc(-c3nc4ccc(N5CCOCC5)cc4[nH]3)cc2)CC1 in this test?
Result string: inactive

Query string: What is the recorded call for this molecule in the test? CCCCN(CCCC)CCCn1c(-c2ccccc2)ccc1-c1ccccc1
Result string: inactive

Query string: Recorded call for O=C(COc1ccc(/C=C2\COc3ccccc3C2=O)cc1)Nc1nccs1 ?
Result string: inactive

Query string: What did the test return for COc1ccc2[nH]cc(-c3noc(C(=O)c4cn(C)c5ccc(F)cc45)n3)c2c1 ?
Result string: inactive

Query string: Dear all, I need the recorded test outcome for Cc1cc(NS(=O)(=O)c2ccc(-c3cnc(C4CC4)o3)cc2)ccc1Cl , thank you.
Result string: active

---

Test system: KM12 colon
Experiment: NCI-60 one-dose screen, 48 h (100 = growth as untreated, 0 = no growth, -100 = all killed)
Conditions: 10 µM unless noted
Compounds without any hit were thinned out: in the full panel of roughly 83,000, 20% have a hit. Calls of active or inactive are those of the source. Rule for the calls: active = growth percent below 10; inactive = the rest.
Provide the reported growth of each item.

Query string: Any idea what growth was measured for OCc1ccc(N2CCc3cccc(F)c3C2)cc1Cl ?
Result string: 101% [0.1 µM] (inactive)

Query string: Reported growth for Oc1cccc2ccc(N/N=C/c3cc(CN4CCOCC4)c(O)c4ncccc34)nc12 : what is it?
Result string: 13.7% (inactive)

Query string: What value of growth has been reported for the following compound? COc1ccc(Nc2c3c4c(cccc4[nH]c2=O)C(=O)c2ccccc2-3)cc1
Result string: -36.2% (active)

Query string: Quick check: growth of CC/C=C\C/C=C\C[C@H]1C/C=C2/C(=O)C=C[C@@H]2C/C=C\CCC(=O)O1 ?
Result string: -27.8% (active)

Query string: # lookup: growth of CC(O)CN1CC(O)=C(c2nc3ccccc3s2)C1=N (centres undefined)
Result string: 117% (inactive)

Query string: What does the data say about its growth? Entry: CS(=O)(=O)c1ccc(-n2nc(-c3ccc(Br)cc3)c3ccccc3c2=O)cc1
Result string: 102% (inactive)

Query string: Name the recorded growth for CCCN1CCN(c2ccc3nc(-c4ccc5nc(-c6ccc(OCC)cc6)[nH]c5c4)[nH]c3c2)CC1 .
Result string: 42.8% (inactive)

Query string: What value of growth has been recorded for this entry: O=C(Nc1ccc(Cl)cc1)c1cc2cc(F)ccc2cc1O
Result string: 12.3% (inactive)

Query string: Quick one: growth for COc1ccc(NC(=O)c2ccc(/C=C/C(=O)c3ncc[nH]3)cc2)cc1 ?
Result string: 27.5% (inactive)

Query string: Report growth for Cc1cc(C)nc(SC2=C(Nc3cccc(Cl)c3C)C(=O)N(Cc3ccccc3)C2=O)n1 please.
Result string: 53.2% [30 µM] (inactive)

Query string: // growth lookup, key: O=C(COc1cccc(/C=C2\COc3ccccc3C2=O)c1)Nc1nccs1
Result string: -44.6% (active)

Query string: GET /values?readout=growth&item= O=[N+]([O-])c1cnc(N2CCN(CC3CC3)CC2)nc1N1CCN(CC2CC2)CC1
Result string: 100% (inactive)

Query string: What does the data say about its growth? Entry: C=CC(=O)Nc1cccc(-c2nc(SC)nc(Nc3cccc(OC)c3)c2C#N)c1
Result string: 87.9% (inactive)

Query string: Query: growth; subject: c1ccc(-c2c(-c3ccccc3)[n+](Cc3ccc4ccccc4c3)c(-c3ccc(-c4nc5ccccc5s4)cc3)n2Cc2ccc3ccccc3c2)cc1
Result string: -88.1% (active)

Query string: Form field: reported growth of CCOc1ccc(C(C)=O)cc1NC(=O)c1cccc(-c2nnn(CC)n2)c1
Result string: 23.8% (inactive)

Query string: Fill blank: measured growth of the compound CC[C@]1(O)C[C@@H]2CN(CCc3c([nH]c4ccccc34)[C@@](C(=O)OC)(c3cc4c(cc3OC)N(C)[C@H]3[C@@](O)(C(N)=O)[C@H](O)[C@]5(CC)[C@@H]6C[C@@H]6CN6CC[C@]43[C@@H]65)C2)C1 is ____.
Result string: 11.9% (inactive)

Query string: Looking for the measured growth of NC(N)=N/N=C(/c1ccccc1)c1ccc(F)cc1 , can you help?
Result string: -7.82% (active)

Query string: Request the reported growth associated with COc1ccc(NC2=C(Sc3nc(C)cc(C)n3)C(=O)N(Cc3ccccc3)C2=O)cc1Cl
Result string: 99.2% [30 µM] (inactive)

Query string: Endpoint output: growth of CCNC(=O)Oc1ccc(/C(=C(\C)c2ccc(Cl)cc2)c2ccc(OCCN3CCCCC3)cc2)cc1 . Value?
Result string: 37.3% (inactive)
